biological target: Human immunodeficiency virus type 1 reverse transcriptase (Human immunodeficiency virus 1)
pIC50: −log10 of the molar value.
MEASUREMENT KIND: pIC50

>>> observed_measurement("C=C(C)[C@@H]1CC[C@@H]2[C@]3(CC[C@]4(C)[C@@H]([C@H](C)CC/C=C(/C)C(=O)O)CC[C@@]24C)C[C@]13CCC(=O)O")
3.80

* * *

assay: Inhibition of DNA dependent DNA polymerase
MEASUREMENT KIND: IC50 (µM)

>>> observed_measurement("C=C(C)[C@@H]1CC[C@@H]2[C@]3(CC[C@]4(C)[C@@H]([C@H](C)CC/C=C(/C)C(=O)O)CC[C@@]24C)C[C@]13CCC(=O)O")
40.6

* * *

test: Inhibition of DNA polymerase alpha
MEASUREMENT KIND: IC50

>>> observed_measurement("C=C(C)[C@@H]1CC[C@@H]2[C@]3(CC[C@]4(C)[C@@H]([C@H](C)CC/C=C(/C)C(=O)O)CC[C@@]24C)C[C@]13CCC(=O)O")
"> 425 µM"

* * *

assay: Inhibition of HIV2 reverse transcriptase; parameters: species or system Human immunodeficiency virus 2
MEASUREMENT KIND: IC50 (µM)

>>> observed_measurement("C=C(C)[C@@H]1CC[C@@H]2[C@]3(CC[C@]4(C)[C@@H]([C@H](C)CC/C=C(/C)C(=O)O)CC[C@@]24C)C[C@]13CCC(=O)O [NIGRANOIC ACID]")
356
